Hello, the source for this data is paper PMC5441137, in case you need it.

What log10 of kcat was measured for each of the following?
Target: recombinant human furin (Homo sapiens, UniProt P09958)
Construct: made in house
Sequence (P09958 108-794): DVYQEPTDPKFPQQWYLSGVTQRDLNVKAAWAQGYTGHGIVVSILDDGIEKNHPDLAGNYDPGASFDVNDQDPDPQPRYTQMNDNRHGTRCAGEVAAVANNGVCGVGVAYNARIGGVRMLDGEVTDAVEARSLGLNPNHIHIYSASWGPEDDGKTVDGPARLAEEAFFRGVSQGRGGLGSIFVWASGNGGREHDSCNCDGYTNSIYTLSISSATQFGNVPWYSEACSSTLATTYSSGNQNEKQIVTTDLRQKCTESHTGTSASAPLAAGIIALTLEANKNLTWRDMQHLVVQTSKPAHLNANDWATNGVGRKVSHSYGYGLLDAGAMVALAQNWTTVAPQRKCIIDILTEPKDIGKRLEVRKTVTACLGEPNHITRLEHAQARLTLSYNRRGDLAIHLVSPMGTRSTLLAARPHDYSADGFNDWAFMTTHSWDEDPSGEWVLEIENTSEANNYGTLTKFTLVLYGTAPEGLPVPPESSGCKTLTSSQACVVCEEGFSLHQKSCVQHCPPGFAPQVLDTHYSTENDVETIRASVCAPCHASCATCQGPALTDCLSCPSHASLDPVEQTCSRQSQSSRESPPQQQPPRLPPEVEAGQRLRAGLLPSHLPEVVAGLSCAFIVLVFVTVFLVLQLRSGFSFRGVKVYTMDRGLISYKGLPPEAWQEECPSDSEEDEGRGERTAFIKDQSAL
Test: FRET peptide enzymatic kinetics assay of cleavage by furin
Format: biochemical
Settings: FRET peptide as furin substrate; 10 mM MES, 1 mM CaCl2, pH 7.0, 37°C; fluorescence λex 320 nm/λem 420 nm; non-linear Michaelis-Menten fit (Grafit)
Plainly stated, the numbers are log10 of kcat given in s⁻¹.

stdin: Fill blank: measured log10 of kcat of the substance RTKR↓STGNTTT [gB3_22] is ____.
stdout: -0.60

stdin: Try this substance next: RTRR↓SASDNNT [gB2_20, FRET peptide of gB genotype 2 with the positively selected mutation T462A]
stdout: 0.61

stdin: Next: RTKR↓DTGNTTT [gB3_26, FRET peptide of gB genotype 3 with the positively selected mutation S461D]
stdout: 0.28

stdin: Thanks! And RTRR↓SMSDNNT [gB2_18, FRET peptide of gB genotype 2 with the positively selected mutation T462M] ?
stdout: 0.48

stdin: And the next one, RTRR↓SRSDNNT [gB2_19, FRET peptide of gB genotype 2 with the positively selected mutation T462R] ?
stdout: 0.70

stdin: Another substance to check: RTRR↓STSDNNT [gB2_13]
stdout: 0.35
